Reference source: PubChem BioAssay (NCATS)

assay: qHTS Screen of the MIPE 4.0 Collection Against Ewings Sarcoma (TC32) (AID 1259256); conditions: TC32 Ewing sarcoma viability, CellTiter-Glo, 48 h; series mostly up to 45.8 µM; also: nearly all actives have a fitted effect of over 45% in size
Records with an inconclusive call do not appear. Activity calls are given as the source filed them. Calls follow the shape of the dose curve; as a rule, active = well fitted inhibition curve with a large enough effect; inconclusive = small, poorly fitted or top-dose-only effect; inactive = no such curve, though single readings can be large or run the other way. Starred links: 1 amine or outer side, 2 acyl side, 3 side chain; linkers in the order of their positions; H or OH if unused. Positions of bridges follow the written chain, without caps; N, C: chain ends. Non-standard residues stand in square brackets, D forms with d. Residues, ends and D or L forms follow the SMILES beside them. Chains are numbered I, II in the order given. Actinocin(9to1) = Cc1c2oc3c(C)ccc(C(=O)[*:1])c3nc-2c(C(=O)[*:2])c(N)c1=O; NMeV = CN[CH](C(=O)O)C(C)C; Sar = CNCC(=O)O
# valid calls are y (active), n (inactive); nothing else

1. C[C@H](NC(=O)C(C#N)=Cc1cccc(Br)n1)c1ccccc1 ... y
2. CC[C@@]1([C@@H]2O[C@@H]([C@H]3O[C@@](O)(CO)[C@H](C)C[C@H]3C)C[C@H]2C)CC[C@H]([C@]2(C)CC[C@]3(C[C@H](O)[C@@H](C)[C@@H]([C@@H](C)[C@@H](OC)[C@H](C)C(=O)O)O3)O2)O1 ... y
3. COc1ccnc2[nH]cc(C(=O)C(=O)N3CCN(C(=O)c4ccccc4)C[C@@H]3C)c12 ... y

Prompt line: GET /call?item= COc1cc(OC)c(C=CS(=O)(=O)Cc2ccc(OC)c(NCC(=O)O)c2)c(OC)c1 returns the recorded outcome of this test.
Response line: y

Prompt line: Dear all, I need the recorded test outcome for C[C@H](NCc1ccc(OCc2cccc(F)c2)cc1)C(N)=O , thank you.
Response line: y

Prompt line: GET /call?item= C[C@@H]1[C@H](C)CC[C@]2(C(=O)O)CC[C@]3(C)C(=CC[C@@H]4[C@@]5(C)C[C@@H](O)[C@H](O)[C@@](C)(CO)[C@H]5CC[C@]43C)[C@@H]12 returns the recorded outcome of this test.
Response line: n

Prompt line: Lab log entry: COC(=O)C1C2CC3c4[nH]c5cc(OC)ccc5c4CCN3CC2CC(OC(=O)c2cc(OC)c(OC)c(OC)c2)C1OC (configuration not stated) — outcome as called in the assay?
Response line: y

Prompt line: Can you look up the reported call for CCOC(=O)C1=C(C)NC(=S)NC1c1cccc(O)c1 (configuration not stated) for me?
Response line: n

Prompt line: Dear colleague, could you share the recorded outcome for C[N+](C)([O-])CCNc1ccc(NCC[N+](C)(C)[O-])c2c1C(=O)c1c(O)ccc(O)c1C2=O when you have a moment?
Response line: n

Prompt line: Dear colleague, could you share the recorded outcome for Cc1c2oc3c(C)ccc(C(=O)NC4C(=O)NC(C(C)C)C(=O)N5CCCC5C(=O)N(C)CC(=O)N(C)C(C(C)C)C(=O)OC4C)c3nc-2c(C(=O)NC2C(=O)NC(C(C)C)C(=O)N3CCCC3C(=O)N(C)CC(=O)N(C)C(C(C)C)C(=O)OC2C)c(N)c1=O (configuration not stated) (I: TVP[Sar][NMeV] / II: TVP[Sar][NMeV]; ester I:1-I:C, II:1-II:C; linker I:N-II:N via Actinocin(9to1); configuration not given here) when you have a moment?
Response line: n

Prompt line: Please let me know the test result on file for O=S(=O)(O)CCSSCCS(=O)(=O)O .
Response line: n

Prompt line: What was the test verdict on O=C(Nc1cccc(Nc2ncc(Br)c(NCCc3cnc[nH]3)n2)c1)N1CCCC1 ?
Response line: y

Prompt line: Please state the recorded outcome for this compound: CC1(C)[C@H](O[C@H]2O[C@H](C(=O)O)[C@@H](O)[C@H](O)[C@H]2O[C@@H]2O[C@H](C(=O)O)[C@@H](O)[C@H](O)[C@H]2O)CC[C@@]2(C)[C@H]1CC[C@]1(C)[C@H]2C(=O)C=C2[C@H]3C[C@@](C)(C(=O)O)CC[C@]3(C)CC[C@]21C
Response line: n

Prompt line: What was the test verdict on Cn1cnc2c(F)c(Nc3ccc(Br)cc3F)c(C(=O)NOCCO)cc21 ?
Response line: n

Prompt line: Fill in: this test's call for C[C@H]1C[C@H]2[C@@H]3CCC4=CC(=O)C=C[C@]4(C)[C@@H]3C(=O)C[C@]2(C)[C@@]1(O)C(=O)CO is ___
Response line: n

Prompt line: Just curious, what result did COc1cc(C(=O)NC2CCN(C)CC2)ccc1Nc1ncc2c(n1)N(C1CCCC1)CCC(=O)N2C(C)C get here?
Response line: y

Prompt line: What was the test verdict on CO[C@@H]1[C@@H](O)[C@H](O)[C@@H](n2c3c(Cl)cccc3c3c4c(c5c6cccc(Cl)c6[nH]c5c32)C(=O)NC4=O)O[C@@H]1CO ?
Response line: n

Prompt line: Kindly provide the recorded test outcome for the following compound: CCCCCCCCCCCCCCCC(=O)OC[C@@H](NC(=O)C(Cl)Cl)[C@H](O)c1ccc([N+](=O)[O-])cc1
Response line: n

Prompt line: Field: outcome | Entry: Nc1nc(=O)n([C@H]2C[C@H](O)[C@@H](CO)O2)cc1F
Response line: y

Prompt line: Which outcome was entered for the compound Cn1c(Nc2ccc(C(F)(F)F)cc2)nc2cc(Oc3ccnc(-c4ncc(C(F)(F)F)[nH]4)c3)ccc21 in this test?
Response line: y

====

assay: qHTS of pediatric cancer cell lines to identify multiple opportunities for drug repurposing: Primary screen for NB-EBc1 cells (AID 1347095); conditions: NB-EBc1 neuroblastoma viability, CellTiter-Glo luminescence, 48 h; series mostly up to 46 µM
Records with an inconclusive call do not appear. Activity calls are given as the source filed them. The call rests on the fitted dose curve; in most records, active means well fitted cell-killing curve with a large enough effect; inconclusive means small, poorly fitted or top-dose-only effect; inactive means no such curve, though single readings can be large or run the other way. Starred links: 1 amine or outer side, 2 acyl side, 3 side chain; linkers in the order of their positions; H or OH if unused. Positions of bridges follow the written chain, without caps; N, C: chain ends. Non-standard residues stand in square brackets, D forms with d. Residues, ends and D or L forms follow the SMILES beside them. Chains are numbered I, II in the order given. Actinocin(9to1) = Cc1c2oc3c(C)ccc(C(=O)[*:1])c3nc-2c(C(=O)[*:2])c(N)c1=O; NMeV = CN[CH](C(=O)O)C(C)C; Sar = CNCC(=O)O
Choose the fitting class; nothing outside active, inactive is accepted.

Would you please look over these solved cases?
1) Cc1c2oc3c(C)ccc(C(=O)NC4C(=O)NC(C(C)C)C(=O)N5CCCC5C(=O)N(C)CC(=O)N(C)C(C(C)C)C(=O)OC4C)c3nc-2c(C(=O)NC2C(=O)NC(C(C)C)C(=O)N3CCCC3C(=O)N(C)CC(=O)N(C)C(C(C)C)C(=O)OC2C)c(N)c1=O (stereo not given) (I: TVP[Sar][NMeV] / II: TVP[Sar][NMeV]; ester I:1-I:C, II:1-II:C; linker I:N-II:N via Actinocin(9to1); configuration not given here) ... inactive
2) COC(=O)[C@H](CCCN=C(N)N)NS(=O)(=O)c1ccc(C)cc1 ... inactive
3) C#CCC(Cc1cnc2nc(N)nc(N)c2n1)c1ccc(C(=O)N[C@@H](CCC(=O)O)C(=O)O)cc1 (stereo not given in full) ... active
4) CCOC(=O)N1CCN([N+]([O-])=NOc2ccc([N+](=O)[O-])cc2[N+](=O)[O-])CC1 ... active

Moving on to another compound below.
Prompt line: Please indicate how the test categorized Cn1cc(C[C@@H](N)C(=O)O)c2ccccc21 .
Response line: inactive

====

experiment: qHTS to identify inhibitors of the type 1 interferon - major histocompatibility complex class I in skeletal muscle: primary screen against the NCATS Mechanism Interrogation Plate v5.0 (MIPE) Libary (AID 1347411); details: iHSKM cells + IFN-b, HiBiT-tagged MHC-I luminescence, 24 h; series mostly up to 45.8 µM; also: nearly all actives have a fitted effect of over 65% in size; also: potency is read from the fitted curve at half-maximal effect
Records with an inconclusive call do not appear. Active and inactive are the calls of the source. Calls come from the whole dose curve; as a rule, active = well fitted inhibition curve with a large enough effect; inconclusive = small, poorly fitted or top-dose-only effect; inactive = no such curve, though single readings can be large or run the other way.
RECORDED ENDPOINT: Potency

Answered cases to consult:
1. Cn1cnc(=N)c2[nH]cnc21 ... inactive
2. COC(=O)C1C2CC3c4[nH]c5cc(OC)ccc5c4CCN3CC2CC(OC(=O)c2cc(OC)c(OC)c(OC)c2)C1OC (stereo not given) ... inactive
3. Cc1cc(O)c2c(c1)C(=O)c1cccc(O)c1C2=O ... inactive
4. Nc1ccn(C2CO[C@H](CO)O2)c(=O)n1 (stereo not given in full) ... inactive
5. COc1ccc(S(=O)(=O)Nc2cccnc2Nc2ccc(O)cc2)cc1 ... inactive
6. CC(=O)O[C@H]1C[C@@H]2CC[C@H]3[C@H]4C[C@H]([N+]5(C)CCCCC5)[C@@H](OC(C)=O)[C@@]4(C)CC[C@@H]3[C@@]2(C)C[C@H]1[N+]1(C)CCCCC1 ... inactive
7. Cc1cc(C(=O)NOCCO)c(Nc2ccc(I)cc2F)n(C)c1=O ... inactive
8. Nc1nc(=O)n([C@H]2C[C@H](O)[C@@H](CO)O2)cc1F ... inactive
9. N=c1ccn2c(n1)O[C@H]1[C@@H](O)[C@@H](CO)O[C@H]12 ... inactive
10. C[C@H](CCC(=O)O)[C@H]1CCC2C3C[C@H](O)[C@@H]4C[C@H](O)CC[C@]4(C)C3CC[C@@]21C (stereo not given in full) ... inactive

Prompt line: What value of Potency has been reported for the following compound? C[C@H](NC(=O)Cc1cc(F)cc(F)c1)C(=O)N[C@H](C(=O)OC(C)(C)C)c1ccccc1
Response line: inactive

Prompt line: May I ask what Potency has been recorded for O=C1NCCc2[nH]c(-c3ccncc3)cc21 ?
Response line: 2.08 µM (active)

Prompt line: For the compound shown here, CC(C)c1cnn2c(NCc3ccccc3)cc(NCCCCCCN)nc12 , give the reported Potency.
Response line: 26.2 µM (active)

Prompt line: Given the compound FC(F)(F)c1ccc(Nc2nc3ccc(Oc4ccnc(-c5ncc(C(F)(F)F)[nH]5)c4)cc3[nH]2)cc1 , what is its reported Potency?
Response line: inactive

Prompt line: Look at this compound and give its reported Potency. O=C(c1ccc(F)cc1)N1CCC[C@H](c2nc(-c3ccc(F)cc3)no2)C1
Response line: inactive

Prompt line: Endpoint output: Potency of Cn1cc(-c2ccc3ncc(Cc4ccc5ncccc5c4)n3n2)cn1 . Value?
Response line: inactive

Prompt line: Would you kindly share the measured Potency for Cc1ccccc1C(=O)Nc1ccc(C(=O)N2CCCC(O)c3cc(Cl)ccc32)c(C)c1 (stereo not given) ?
Response line: inactive

Prompt line: Which measured Potency value corresponds to C[C@H]1COc2c(N3CCN(C)CC3)c(F)cc3c(=O)c(C(=O)O)cn1c23 ?
Response line: inactive

Prompt line: GET /values?readout=Potency&item= Cc1cnc(Nc2ccc(CN3CCOCC3)cc2)nc1Nc1cccc(S(=O)(=O)NC(C)(C)C)c1
Response line: 2.94 µM (active)

Prompt line: Using the record for CCCNS(=O)(=O)Nc1ncnc(OCCOc2ncc(Br)cn2)c1-c1ccc(Br)cc1 , report its Potency.
Response line: inactive
